Reference for the values: ChEMBL document CHEMBL3988442

# study system: AMP-activated protein kinase, AMPK (Homo sapiens) (UniProt P54646+O43741+P54619+Q9UGJ0+Q9Y478+Q13131+Q9UGI9)
# test method notes: AMP-dependent Kinase enzyme assay. An in vitro enzyme assay that detects ADP turnover that is directly proportional to AMPK activity. This uses naive AMPK that is activated during the assay with MK-8722
# Type: functional
# Design: scale not given: direction of the effect not stated beside the values
# recorded conditions: 30 µM

{"molecule": "COc1ncccc1C(=O)N1CC[C@H]2C[C@@H](C)O[C@@H]2C1", "Percent Effect (%)": 0.286}
{"molecule": "Cc1csc(C2CCCCN2C(=O)CN(C)C2CC2)n1 (centres undefined)", "Percent Effect (%)": 0.541}
{"molecule": "CCc1c(C(=O)N2CCN(c3ncccn3)CC2)cnn1C(C)(C)C", "Percent Effect (%)": -5.24}
{"molecule": "Cc1c(C(=O)NCC(C)C)nnn1-c1cccc2c1CCN(C)C2", "Percent Effect (%)": 0.913}
{"molecule": "Cn1ccnc1COc1ccc(CO)cc1", "Percent Effect (%)": -1.87}
{"molecule": "CN(CC1(O)CCCN(c2ccccn2)C1)C(=O)Cc1ccsc1 (centres undefined)", "Percent Effect (%)": 12}
{"molecule": "CCCC(C)CN1CCC(n2cc(C3CCCC3)nn2)CC1 (centres undefined)", "Percent Effect (%)": -5.31}
{"molecule": "O=C(NCC1OCCc2cn(CC3CC3)nc21)c1ccsc1 (centres undefined)", "Percent Effect (%)": 2.23}
{"molecule": "Cc1ccc(CN2C[C@@H]3COC[C@H](NS(C)(=O)=O)[C@@H]3C2)o1", "Percent Effect (%)": 3.44}
{"molecule": "CCOC(=O)N1CCN(Cc2ccc(OCc3nccn3C)cc2)CC1", "Percent Effect (%)": 3.48}
{"molecule": "CCCc1ncc(C(=O)N2CCOC(c3nc(C)n[nH]3)C2)s1 (centres undefined)", "Percent Effect (%)": 4.69}
{"molecule": "Cc1nc(CN2CCOC(CN(C)c3cccnn3)C2)cs1 (centres undefined)", "Percent Effect (%)": -2.69}
{"molecule": "CCCn1nc2c(cc1=O)CN(Cc1cc(C)on1)CC2", "Percent Effect (%)": -46.3}
{"molecule": "NCCn1nc(C2CCN(Cc3ccc(Cl)c(Cl)c3)C2)c2nccnc21 (centres undefined)", "Percent Effect (%)": 7.43}
{"molecule": "CCCS(=O)(=O)N1CCO[C@H]2[C@H](OCc3ccccn3)CC[C@@H]21", "Percent Effect (%)": -5.79}
{"molecule": "Cc1nc(C2CCCN(C(=O)c3cnn(C(C)(C)C)c3)C2)no1 (centres undefined)", "Percent Effect (%)": -6.15}
{"molecule": "O=C(NCCCn1nc2ccccn2c1=O)NC1CCC(O)CC1 (centres undefined)", "Percent Effect (%)": 9.76}
{"molecule": "CCC(=O)N1CCN(Cc2cc(-c3ccncc3)nn2C)CC1", "Percent Effect (%)": 12.8}
{"molecule": "c1ccc(-c2noc(CNC3CCc4ncnn4C3)n2)nc1 (centres undefined)", "Percent Effect (%)": -0.412}
{"molecule": "COCCCN(CCOC)C(=O)Nc1ccccc1Br", "Percent Effect (%)": 4.89}
{"molecule": "CN(Cc1cnn(C)c1)C(=O)NCc1nnc2n1CCC2", "Percent Effect (%)": 2.17}
{"molecule": "Cc1ccc(CNC(=O)CCSCc2csc(C)n2)cn1", "Percent Effect (%)": -1.48}
{"molecule": "NC(=O)C1CCN(C(=O)CCn2ccc3cc(Br)ccc32)CC1", "Percent Effect (%)": -4.65}
{"molecule": "CNC(=O)CC1CCN(Cc2nc(-c3ccc(SC)cc3)oc2C)CC1", "Percent Effect (%)": -0.898}

----------
# Test system: Trypanosoma cruzi
# test method notes: Trypanosoma cruzi phosphomannomutase and mannose-1-phosphate guanylyltransferase assay
# Format: functional
# Set-up: scale not given: direction of the effect not stated beside the values
# recorded conditions: 10 µM

{"molecule": "Cn1cc(CCNC(=O)NCc2nnc3n2CCC3)cn1", "unit tag": "%", "Percent Effect": -1.6}
{"molecule": "Cc1nc(C)n(CC2CCCCN2CC(=O)Nc2cccnc2)n1 (stereo unspecified)", "unit tag": "%", "Percent Effect": 3.98}
{"molecule": "CCc1nc(NS(=O)(=O)c2cc(C)ccc2F)no1", "unit tag": "%", "Percent Effect": 6.13}
{"molecule": "CC(C)C(C(=O)N1CCN(Cc2ccncc2)CC1)n1cncn1 (stereo unspecified)", "unit tag": "%", "Percent Effect": 0.0983}
{"molecule": "Cc1cc(C[C@@H]2COC[C@@H]2NC(=O)Cn2c(=O)oc3ccccc32)on1", "unit tag": "%", "Percent Effect": 3.33}
{"molecule": "O=C(c1cccnc1N1CCOCC1)N1CCCC(n2ccnc2)C1 (stereo unspecified)", "unit tag": "%", "Percent Effect": -3.76}
{"molecule": "COc1ccc(CN2CCCC3(CCN(c4ccsc4)C3=O)C2)cc1 (stereo unspecified)", "unit tag": "%", "Percent Effect": -5.32}
{"molecule": "CNC(=O)c1cccc(CNC(=O)C2CC(=O)N(CCN(C)C)C2)c1 (stereo unspecified)", "unit tag": "%", "Percent Effect": -2.63}
{"molecule": "CCCOCC(=O)NC1CCc2nc(C)cn2C1 (stereo unspecified)", "unit tag": "%", "Percent Effect": -2.04}
{"molecule": "CS(=O)(=O)N1Cc2nccn2CC(Cn2ncccc2=O)C1 (stereo unspecified)", "unit tag": "%", "Percent Effect": -5.79}
{"molecule": "O=C(NC1CC1)[C@H]1C[C@H]2OCC[C@H]2N(CC2CCOCC2)C1", "unit tag": "%", "Percent Effect": -3.28}

----------
# study system: Protein translocase subunit SecA (Escherichia coli (strain K12)) (UniProt P10408)
# Sequence (P10408 whole entry): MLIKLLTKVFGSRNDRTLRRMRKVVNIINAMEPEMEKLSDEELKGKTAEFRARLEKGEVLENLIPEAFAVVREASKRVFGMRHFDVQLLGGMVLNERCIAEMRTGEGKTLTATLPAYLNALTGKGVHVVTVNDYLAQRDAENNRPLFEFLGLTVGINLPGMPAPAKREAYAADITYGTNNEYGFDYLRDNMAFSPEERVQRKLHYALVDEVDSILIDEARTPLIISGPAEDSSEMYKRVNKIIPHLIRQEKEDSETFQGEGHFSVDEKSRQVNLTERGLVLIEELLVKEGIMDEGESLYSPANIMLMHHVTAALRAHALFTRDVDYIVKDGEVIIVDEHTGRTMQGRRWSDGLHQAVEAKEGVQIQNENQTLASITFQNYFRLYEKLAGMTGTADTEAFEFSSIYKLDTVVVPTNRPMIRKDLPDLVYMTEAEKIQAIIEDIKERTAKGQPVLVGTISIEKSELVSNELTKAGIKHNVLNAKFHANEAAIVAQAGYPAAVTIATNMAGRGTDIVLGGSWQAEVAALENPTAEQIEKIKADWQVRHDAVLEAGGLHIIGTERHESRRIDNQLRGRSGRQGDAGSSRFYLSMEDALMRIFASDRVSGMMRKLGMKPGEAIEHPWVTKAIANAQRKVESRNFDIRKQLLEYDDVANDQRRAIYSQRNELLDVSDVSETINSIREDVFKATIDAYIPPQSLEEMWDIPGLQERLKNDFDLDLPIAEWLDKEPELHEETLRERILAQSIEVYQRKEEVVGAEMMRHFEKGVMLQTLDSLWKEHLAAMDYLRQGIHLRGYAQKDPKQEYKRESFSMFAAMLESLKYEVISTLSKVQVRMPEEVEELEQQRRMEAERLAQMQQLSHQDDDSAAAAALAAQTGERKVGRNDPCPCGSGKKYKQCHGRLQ
# test method notes: Assay to Identify E. coli SecA ATPase Inhibitors
# Format: functional
# Design: scale not given: direction of the effect not stated beside the values
# recorded conditions: 30 µM
Entries with a potency or affinity are not part of this list.
In this section we review reported Percent Effect values for a set of molecules.
readout label: Percent Effect

{"molecule": "Cc1cc(C(=O)N2CCC(c3nccn3Cc3ccncc3)CC2)no1", "readout label": "Percent Effect", "observed result": "-4.98%"}
{"molecule": "O=C(Cc1ccc2c(c1)CCO2)N1CCCCC1Cn1cccn1 (centres undefined)", "readout label": "Percent Effect", "observed result": "-5.85%"}
{"molecule": "COc1cccc(C(=O)Nc2cc(CC(C)C)nn2C)c1", "readout label": "Percent Effect", "observed result": "-4.81%"}
{"molecule": "CN(C)C(=O)N1C[C@@H]2CC[C@H](C1)N(Cc1ccc3nsnc3c1)C2", "readout label": "Percent Effect", "observed result": "-2.91%"}
{"molecule": "COCCO[C@H]1CCN(Cc2cccs2)[C@H]1Cc1cccnc1", "readout label": "Percent Effect", "observed result": "-3.38%"}
{"molecule": "CCCOc1ccc(CNC2CCCc3c2cnn3CC)cc1OC (centres undefined)", "readout label": "Percent Effect", "observed result": "-6.15%"}
{"molecule": "O=C(Cc1ccc2c(c1)CCO2)N1CCN(c2cnccn2)CC1", "readout label": "Percent Effect", "observed result": "-4.64%"}
{"molecule": "Cc1cccc(NC(=O)N2CCCn3cnc(CN4CCCC4)c3C2)c1", "readout label": "Percent Effect", "observed result": "-3.65%"}
{"molecule": "Cc1cnn(CCCNC(=O)N2CCCCC(N3CCCC3)C2)c1 (centres undefined)", "readout label": "Percent Effect", "observed result": "-2.45%"}
{"molecule": "O=C(c1ccncc1)N1CCC(O)(Cn2ccc3ccncc32)CC1", "readout label": "Percent Effect", "observed result": "-2.15%"}
{"molecule": "O=C(CNC(=O)N1CCc2c([nH]c3ccc(Cl)cc23)C1)N1CCOCC1", "readout label": "Percent Effect", "observed result": "-8.87%"}
{"molecule": "O=C(Cc1ccc2c(c1)OCCO2)N1CCCC(n2cccn2)C1 (centres undefined)", "readout label": "Percent Effect", "observed result": "2.92%"}
{"molecule": "Cc1cc(C)nc(NC(=O)C(C)Oc2ccc3c(c2)OCO3)n1 (centres undefined)", "readout label": "Percent Effect", "observed result": "-1.24%"}
{"molecule": "CC(=O)c1ccc(C(=O)NCCCOC(C)c2ccccc2)s1 (centres undefined)", "readout label": "Percent Effect", "observed result": "-1.12%"}
{"molecule": "O=C(Cn1cc(I)cn1)N1CCc2ccccc2C1", "readout label": "Percent Effect", "observed result": "0.654%"}
{"molecule": "CC(C)c1noc(C(C)N2CCN(CCN3CCCC3=O)CC2)n1 (centres undefined)", "readout label": "Percent Effect", "observed result": "-5.03%"}
{"molecule": "Fc1ccc(-c2nnc(CN3CCCC3Cn3cncn3)o2)cc1 (centres undefined)", "readout label": "Percent Effect", "observed result": "-1.9%"}
{"molecule": "O=C(CCOCc1ccccc1)N1CCCC1c1noc(C2CC2)n1 (centres undefined)", "readout label": "Percent Effect", "observed result": "-0.0528%"}
{"molecule": "CCNC(=O)N1CCC2(C1)c1ccccc1S(=O)(=O)N2CCC(C)C (centres undefined)", "readout label": "Percent Effect", "observed result": "-3.49%"}
{"molecule": "Cc1ccccc1CN1CCN(CC(=O)Nc2cccnc2)CC1", "readout label": "Percent Effect", "observed result": "-3.14%"}
{"molecule": "Cn1cc(CCNC(=O)CCc2ccc3c(c2)OCO3)cn1", "readout label": "Percent Effect", "observed result": "-0.341%"}
{"molecule": "COCc1c(C(=O)O)nnn1Cc1cccc(C(F)(F)F)c1", "readout label": "Percent Effect", "observed result": "-0.917%"}
{"molecule": "Cc1cc(CN2CCN(CC(O)c3ccccc3)CC2)no1 (centres undefined)", "readout label": "Percent Effect", "observed result": "-5.4%"}
{"molecule": "NC(=O)c1cc(C2CCCN(C(=O)CCc3cscn3)C2)n[nH]1 (centres undefined)", "readout label": "Percent Effect", "observed result": "-1.95%"}
